test: protein stability index of a GFP-peptide fusion (yeast GPS) (PSI 1-4); higher = more stable; sorted into four equal gates, so the index is relative within each strain; settings: san1∆
Classification scheme (protein stability index): bottom bin = under 2, middle bin = from 2 up to 3, top bin = 3 and over

Exam item: assign VLVASAKGLQTVVVEED [RPL31A] to the correct category.
middle bin

Exam item: assign SGNNNGGFTNLTSQAPQ [YDL088C/ASM4] to the correct category.
top bin

Exam item: assign SVSFKVFLLLQAYFSRL [BRR2] to the correct category.
bottom bin

----------
assay: protein stability index of a GFP-peptide fusion (yeast GPS) (PSI 1-4); higher = more stable; sorted into four equal gates, so the index is relative within each strain; settings: san1∆
Classification scheme (protein stability index): 0 = under 2, 1 = from 2 up to 3, 2 = 3 and over

sequence_chain="LLCDKAQKNTQSYGGRP [PRE5]" class_name=2
sequence_chain="PYKYRLREEIFIANEGV [RPL2A]" class_name=1
sequence_chain="TSRTIVRNVKGPVREND [RPS28A]" class_name=2

Exam item: assign ASELANPYSSYVSQIRK [YAR002W/NUP60] to the correct category.
1

Exam item: assign QIMQNPTHYKIPAWFLN [RPS18A] to the correct category.
0

Exam item: assign PLRGALATYGLTIDDLG [FAS2] to the correct category.
1

Exam item: assign LPTNPTLDKPNAEATKE [CSE2] to the correct category.
1

Exam item: assign ADEDDEDAKYVINLKQI [RPT1] to the correct category.
0

Exam item: assign MFRYKTNLYKLKEERAI [PUP3] to the correct category.
0

Exam item: assign TDVKLTLPQPRLNKLNS [SMD1] to the correct category.
1

Exam item: assign LSSMRFKPSQEPEFHAL [RRI1] to the correct category.
1

Exam item: assign TGAPPYYYNTKIYKLEN [YMR129W/POM152] to the correct category.
1

Exam item: assign VYPITLSTDATSADLKS [UBP6] to the correct category.
1

Exam item: assign LKGLLQELKADSPFSLI [SRP72] to the correct category.
1

Exam item: assign RYLVGGNKIQKVLLDSK [RPS7A] to the correct category.
0

Exam item: assign LNENARELEQIKPKIAL [SNF12] to the correct category.
1

Exam item: assign QWIKFLLHTLYLRPASA [SSN8] to the correct category.
0

Exam item: assign LSLTTVPCDRIEKSRLF [SNF6] to the correct category.
1

Exam item: assign RRQAVDVSPLRRVNQAI [RPS5] to the correct category.
1

Exam item: assign NSKNDSANVELFKRDCN [YCS4] to the correct category.
2

Exam item: assign EKVTIAPLVLLSALDHY [RPN8] to the correct category.
0

Exam item: assign FKLPKKFPPPTPLLENI [BRR2] to the correct category.
1

Exam item: assign TVDVSSPTENGVFDPAS [RPL22A] to the correct category.
1

Exam item: assign ETIIFDSELNRALFETK [RRI1] to the correct category.
2

Exam item: assign LGLCCLLDVKLAIDNMY [YCG1] to the correct category.
0

Exam item: assign QLHFSLLDEEAEQSFDQ [RPO21] to the correct category.
2
